Here, molecules appear alongside pKi reported for UniProtKB Q16769 in the literature.
Answers are plain numbers, as −log10 of the molar value.

// worked examples, pKi included
[[record]]
molecule = "CC(F)(F)COc1ccc([C@H]2CC(=O)N2c2ccc3[nH]cnc3c2)c(F)c1"
measure = "pKi"
assay_result = 8.42

[[record]]
molecule = "COc1cc(CCc2nnc(-c3ccc4[nH]cnc4c3)s2)cc(OC)c1OC"
measure = "pKi"
assay_result = 7.10


Please give pKi for each item listed below.
1. c1ccc(COc2ccc(-c3cccn4cncc34)cc2)cc1
2. COc1ccccc1-c1cc(NCCCn2ccnc2)nc(C)n1
3. COc1ccc(-c2cccn3cncc23)cc1C
4. COC1=C(C)C(c2ccc(C3CCC(N4CCOCC4)CC3)cc2)N(c2ccc3nc[nH]c3c2)C1=O (stereo not shown)
5. COC1=C(C)C(c2ccc(C3CCCCC3)cc2)N(c2ccc3nc[nH]c3c2)C1=O (stereo not shown)
6. CCC(C(=S)NCCCn1ccnc1)c1ccccc1 (stereo not shown)
7. COc1cccc(CCc2nnc(-c3ccc4[nH]cnc4c3)s2)c1Cl
8. c1ccc(SCn2cc(-c3ccc4[nH]cnc4c3)nn2)cc1

a:
[6.12, 5.67, 5.58, 7.73, 7.34, 5.45, 7.00, 6.92]

Please give pKi for each item listed below.
1. Cc1ccc(NC(=NC#N)NCCCn2ccnc2)cc1
2. COc1ccc(NC(=N)NCCCn2ccnc2)cc1OC
3. c1ccc(-c2cccn3cncc23)cc1
4. FC(F)(F)Oc1ccccc1-c1cccn2cncc12
5. CC1=C(O)C(=O)N(c2ccc3nc[nH]c3c2)C1c1c(F)ccc(F)c1Cl (stereo not shown)
6. Fc1cccc(-c2cccn3cncc23)c1

a:
5.87
3.69
5.89
4.84
7.25
5.69

###

pKi: −log10 of the molar value.
Here, molecules appear alongside pKi reported for Glutaminyl-peptide cyclotransferase (Homo sapiens, UniProt Q16769) in the literature.
// thresholds for pKi classes: lower bin (below 6), middle bin (6 to below 7), upper bin (7 or more)

q: Band for the recorded pKi of `O=C1C[C@H](c2ccc(OCCC(F)F)c(F)c2F)N1c1ccc2[nH]cnc2c1` ?
a: upper bin

q: Band for the recorded pKi of `c1cc(-c2nc(NCCCn3ccnc3)cc(-c3ccoc3)n2)ccn1` ?
a: lower bin

q: Band for the recorded pKi of `c1ccc(Cc2cccn3cncc23)cc1` ?
a: lower bin

q: Band for the recorded pKi of `c1ccc2c(c1)CC(c1cc(NCCCn3ccnc3)nc(-c3ccncc3)n1)C2` ?
a: lower bin

q: Band for the recorded pKi of `COc1c(C)cc(-c2cccn3cncc23)cc1C` ?
a: lower bin

q: Band for the recorded pKi of `COc1ccc(NC(=S)NCc2ccc(Cn3ccnc3)cc2)cc1OC` ?
a: lower bin

q: Band for the recorded pKi of `Clc1cccc(-c2cccn3cncc23)c1` ?
a: lower bin

q: Band for the recorded pKi of `O=c1c2ccccc2[nH]c(=S)n1CCCn1ccnc1` ?
a: middle bin

q: Band for the recorded pKi of `CC(C)Cc1cccn2cncc12` ?
a: lower bin

q: Band for the recorded pKi of CC1=C(O)C(=O)N(c2ccc3[nH]cnc3c2)C1c1cc(F)c(F)cc1F (centres unmarked) ?
a: upper bin

q: Band for the recorded pKi of `Clc1ccccc1Cn1cnnc1-c1ccc2[nH]cnc2c1` ?
a: middle bin

q: Band for the recorded pKi of `c1ccc(-c2ccc(-c3cccn4cncc34)cc2)cc1` ?
a: lower bin

q: Band for the recorded pKi of `Cc1nc(NCCCn2ccnc2)cc(C2Cc3ccccc3C2)n1` ?
a: lower bin

q: Band for the recorded pKi of O=C1CC(c2ccccc2)N1c1ccc2[nH]cnc2c1 (racemic) ?
a: middle bin

q: Band for the recorded pKi of COC1=C(c2ccccc2)C(c2cc(F)cc(F)c2F)N(c2ccc3[nH]cnc3c2)C1=O (centres unmarked) ?
a: upper bin

q: Band for the recorded pKi of O=C(C1=C(O)C(=O)N(c2ccc3[nH]cnc3c2)C1c1cccc(F)c1F)c1ccccc1 (centres unmarked) ?
a: upper bin

###

Here, molecules appear alongside Ki reported for Glutaminyl-peptide cyclotransferase (Homo sapiens, UniProt Q16769) in the literature.
Rule: Ki below 3000 nM gives y. Equal to or above 3000 nM gives n.

q: Consider `c1cc(-c2ccc3c(c2)OCO3)c2cncn2c1` . Does its Ki lie strictly below 3000 nM?
a: n

q: Consider `Cc1nc(NCCCn2ccnc2)cc(-c2ccccc2)n1` . Does its Ki lie strictly below 3000 nM?
a: n

q: Consider `Cc1cn(CCCN/C(=N/C#N)Nc2ccc(-c3ccccc3)cc2)cn1` . Does its Ki lie strictly below 3000 nM?
a: y

q: Consider `Cc1cc(C)c(N/C(=N/C#N)NCCCn2cnc(C)c2)c(C)c1` . Does its Ki lie strictly below 3000 nM?
a: y

q: Consider COC1=C(C)[C@@H](c2cccc(F)c2F)N(c2ccc3nc[nH]c3c2)C1=O (single isomer, unassigned) . Does its Ki lie strictly below 3000 nM?
a: y

q: Consider `COc1ccccc1CCc1nnc(-c2ccc3[nH]cnc3c2)s1` . Does its Ki lie strictly below 3000 nM?
a: y

q: Consider `Cc1cn(CCCN/C(=N/C#N)Nc2ccc(Cl)c(Cl)c2)cn1` . Does its Ki lie strictly below 3000 nM?
a: y

q: Consider `Cc1cncn1CCCN/C(=N\C#N)Nc1ccc(C(C)C)cc1` . Does its Ki lie strictly below 3000 nM?
a: y

q: Consider `CCNC(=O)NCCCn1ccnc1` . Does its Ki lie strictly below 3000 nM?
a: n

q: Consider `COc1ccc(CNC(=S)NCCCn2ccnc2)cc1` . Does its Ki lie strictly below 3000 nM?
a: n

###

Here, compounds appear alongside pKi reported for UniProt Q16769 in the literature.
Give bare numbers, as −log10 of the molar value.

// worked examples, pKi included
[[record]]
compound = "S=C(NCCCn1ccnc1)Nc1ccc(-c2cnco2)cc1"
measure = "pKi"
assay_result = 6.07

[[record]]
compound = "O=C1C[C@H](c2ccc(OCCC(F)F)cc2F)N1c1ccc2[nH]cnc2c1"
measure = "pKi"
assay_result = 8.48

[[record]]
compound = "FC(F)(F)c1cc(NCCCn2ccnc2)nc(-c2ccncc2)n1"
measure = "pKi"
assay_result = 5.38

[[record]]
compound = "COC1=C(C)C(C2CCC(c3ccccc3)CC2)N(c2ccc3nc[nH]c3c2)C1=O (stereo not drawn)"
measure = "pKi"
assay_result = 6.79

[[record]]
compound = "COc1cc(-c2cc(NCCCn3ccnc3)nc(C)n2)cc(OC)c1OC"
measure = "pKi"
assay_result = 6.14


Please give pKi for each item listed below.
1. c1ccc(-c2nc(NCCCn3ccnc3)cc(-c3ccoc3)n2)cc1
2. COc1cc(N/C(=C/[N+](=O)[O-])NCCCn2ccnc2)cc(OC)c1OC
3. COc1ccccc1-c1cc(NCCCn2ccnc2)nc(-c2ccncc2)n1
4. COc1cc(F)c(C2CC(=O)N2c2ccc3nc[nH]c3c2)c(F)c1 (racemic)

a:
1. 4.83
2. 6.13
3. 6.08
4. 8.07

###

Here, compounds appear alongside pKi reported for Glutaminyl-peptide cyclotransferase (Homo sapiens) in the literature.
Numbers only, as −log10 of the molar value.

// worked examples, pKi included
[[record]]
compound = "Cc1cc(C)c(N/C(=N/C#N)NCCCn2cncc2C)c(C)c1"
measure = "pKi"
assay_result = 6.97

[[record]]
compound = "Clc1cccc(Cn2cnnc2-c2ccc3[nH]cnc3c2)c1Cl"
measure = "pKi"
assay_result = 6.92

[[record]]
compound = "c1ccc(Oc2ccc(Cn3cnnc3-c3ccc4[nH]cnc4c3)cc2)cc1"
measure = "pKi"
assay_result = 7.10

[[record]]
compound = "COC(=O)c1ccc(NC(=S)NCCCn2ccnc2)cc1"
measure = "pKi"
assay_result = 5.92


Please give pKi for each item listed below.
1. Cc1cncn1CCCN/C(=N\C#N)Nc1cccc2ccccc12
2. Fc1cccc(CCc2nnc(-c3ccc4[nH]cnc4c3)s2)c1
3. Clc1ccc(-c2cccn3cncc23)cc1
4. COc1ccc(N/C(=N/C#N)NCCCn2cncc2C)cc1
5. Cc1cncn1CCCN/C(=N\C#N)Nc1ccc2nsnc2c1

a:
6.99
6.92
5.95
7.13
6.88

Please give pKi for each item listed below.
1. CCOc1ccc(N/C(=N\C#N)NCCCn2cncc2C)cc1
2. O=[N+]([O-])/C=C(\NCCCn1ccnc1)Nc1ccc2c(c1)OCO2
3. S=C(Cc1cccs1)NCCCn1ccnc1
4. COC1=C(C)C(c2cccc(Cl)c2Cl)N(c2ccc3[nH]cnc3c2)C1=O (stereo not shown)
5. CCCCc1cccn2cncc12
6. Cc1ccc(-c2cc(NCCCn3ccnc3)nc(C)n2)cc1

a:
1. 7.04
2. 6.02
3. 5.48
4. 7.33
5. 5.43
6. 5.45

Please give pKi for each item listed below.
1. COc1cccc(-c2cc(NCCCn3ccnc3)nc(C)n2)c1
2. COC1=C(C)C(c2ccc(C3CCC(F)(F)CC3)cc2)N(c2ccc3nc[nH]c3c2)C1=O (stereo not shown)
3. COc1ccc(NC(=O)NCCCn2ccnc2)cc1OC1CCCC1
4. COc1ccc(CCc2nnc(-c3ccc4[nH]cnc4c3)s2)cc1Cl

a:
5.57
7.44
6.21
7.30
